target: Dr hemagglutinin (DraE) adhesin, Dr fimbriae (E. coli); assay: SPR
Result Type: pKd
Answers are plain numbers, as −log10 of the molar value.

Entry N-domain of CEACAM1 (domain or fragment) has what pKd?
4.82

Could you now consider this next substance?
Entry CEA-CEACAM8 chimera (from UniProt P06731 35-92) (domain or fragment) has what pKd?
4.84
